TARGET: GPR40 (Homo sapiens)
Construct: expressed in transfected cells; host or cells: HEK293 cells stably expressing GPR40 (Hygromycin selection)
PROTOCOL: IP1 accumulation assay in HEK293 cells stably expressing GPR40
Format: cell-based
TEST_CONTEXT: IP1 accumulation, HEK293 cells stably expressing GPR40, 2 hours at 37° C., % effect relative to AMG-1638; table of Biological Example 1
RECORDED_METRIC: pEC50
Conceptually, pEC50 converts a concentration in mol/L into minus its log10.

Example compounds with recorded pEC50:
[[record]]
compound = "C[C@H](C(=O)O)[C@H](c1ccc2c(c1)O[C@@H](C1CCN(Cc3cc(-c4cn(CCCCCCCCCCCCCCCCCC(=O)NCC[N+](C)(CCC(=O)NCCN)CCC(=O)NCCN)nn4)ccc3OC(F)(F)F)CC1)CC2)C1CC1 [Example 7]"
recorded_metric = "pEC50"
val = 9.19

[[record]]
compound = "COc1ccc(F)c(-n2nnc(COc3cccc([C@@H](CC(=O)O)C4CC4)c3)c2CC(C)(C)Cn2cc(CCCCCCCCCCCCCCCC(=O)NCCN(CCC(=O)NCCN)CCC(=O)NCCN)nn2)c1 [Example 179]"
recorded_metric = "pEC50"
val = 7.30


Recorded result, COc1ccc(F)c(-c2ccc(COc3cccc([C@@H](CC(=O)O)C4CC4)c3)cc2OC(C)(C)COCc2cn(CCCCCCCCCCCCCC(=O)NCCN(CCC(=O)NCCN)CCC(=O)NCCN)nn2)c1 [Example 25] , pEC50: 6.88

Recorded result, C[C@H](C(=O)O)[C@H](c1ccc2c(c1)O[C@@H](C1CCN(Cc3cc(-c4cn(CCCCCCCCCCCC(=O)NCC[N+](C)(CCC(=O)NCCN)CCC(=O)NCCN)nn4)ccc3OC(F)(F)F)CC1)CC2)C1CC1 [Example 83] , pEC50: 6.19

Recorded result, COc1ccc(C(=O)N(CC(C)(C)CCCCCCn2cc(CCCCCCCCCC(=O)NCCC[N+](C)(CC(=O)[O-])CC(=O)O)nn2)c2cccc(C)n2)c(N2CCC(COc3cc([C@@H](CC(=O)O)C4CC4)ccn3)CC2)c1 (some centres unmarked) [Example 208] , pEC50: 8.29

----------
Known EC50 of a selection of compounds
TARGET: GPR40 (Homo sapiens)
Construct: expressed in transfected cells; host or cells: HEK293 cells stably expressing GPR40 (Hygromycin selection)
PROTOCOL: IP1 accumulation assay in HEK293 cells stably expressing GPR40
Type: cell-based
TEST_CONTEXT: Tables A-1a to A-7b (structure-property relationship); obtained by methods of Biological Example 1
Respond numerically; units are nM and should not be typed.

Recorded result, COc1ccc(F)c(-c2ccc(COc3cccc([C@@H](CC(=O)O)C4CC4)c3)cc2CC(C)(C)Cn2cc(CCCCCCCCCCCCCC(=O)NCCN(CCC(=O)NCCN)CCC(=O)NCCN)nn2)c1 , EC50: 138

Recorded result, COc1ccc(F)c(-c2ccc(COc3cccc([C@@H](CC(=O)O)C4CC4)c3)cc2CC(C)(C)Cc2cn(CCCCCCCCCCCCCCC(=O)NCC[N+](C)(CCC(=O)NCCN)CCC(=O)NCCN)nn2)c1 , EC50: 4.05

Recorded result, COc1ccc(F)c(-c2ccc(COc3cccc([C@@H](CC(=O)O)C4CC4)c3)cc2CC(C)(C)Cn2cc(CCCCCCC(=O)NCCN(CCC(=O)NCCN)CCC(=O)NCCN)nn2)c1 , EC50: 1950

Recorded result, COc1ccc(C(=O)N(CC(C)(C)CCn2cc(CCCCCCCCCCCCCC(=O)NCCCN(CC(=O)O)CC(=O)O)nn2)c2cccc(C)n2)c(N2CCC(COc3cc([C@@H](CC(=O)O)C4CC4)ccn3)CC2)c1 , EC50: 1.33

----------
Known pEC50 of a selection of compounds
TARGET: GPR40 (Homo sapiens)
Construct: expressed in transfected cells; host or cells: HEK293 cells stably expressing GPR40 (Hygromycin selection)
PROTOCOL: IP1 accumulation assay in HEK293 cells stably expressing GPR40
Format: cell-based
TEST_CONTEXT: IP1 accumulation, HEK293 cells stably expressing GPR40, 2 hours at 37° C., % effect relative to AMG-1638; table of Biological Example 1
Conceptually, pEC50 converts a concentration in mol/L into minus its log10.

[[record]]
compound = "COc1ccc(C(=O)N(CC(C)(C)CCn2cc(CCCCCCCCCCCCCCC(=O)NCC[N+](C)(CCC(=O)NCCN)CCC(=O)NCCN)nn2)c2cccc(C)n2)c(N2CCC(COc3cc([C@@H](CC(=O)O)C4CC4)ccn3)CC2)c1"
val = 10.00

[[record]]
compound = "COc1ccc(C(=O)N(CC(C)(C)CCn2cc(CCCCCCCCCC(=O)NCCN(CCC(=O)NCCN)CCC(=O)NCCN)nn2)c2cccc(C)n2)c(N2CCC(COc3cc([C@@H](CC(=O)O)C4CC4)ccn3)CC2)c1"
val = 7.07


Attention now shifts to the item below.
Recorded result, COc1ccc(C(=O)N(CC(C)(C)CCn2cc(CCCCCCCCCCCCCC(=O)NCCC[N+](C)(CC(=O)[O-])CC(=O)O)nn2)c2cccc(C)n2)c(N2CCC(COc3cc([C@@H](CC(=O)O)C4CC4)ccn3)CC2)c1 (stereo partly shown) , pEC50: 9.06

----------
TARGET: GPR40 (Homo sapiens, UniProt O14842)
Construct: expressed in transfected cells; host or cells: HEK293 cells stably expressing GPR40 (Hygromycin selection)
Sequence (O14842 whole entry): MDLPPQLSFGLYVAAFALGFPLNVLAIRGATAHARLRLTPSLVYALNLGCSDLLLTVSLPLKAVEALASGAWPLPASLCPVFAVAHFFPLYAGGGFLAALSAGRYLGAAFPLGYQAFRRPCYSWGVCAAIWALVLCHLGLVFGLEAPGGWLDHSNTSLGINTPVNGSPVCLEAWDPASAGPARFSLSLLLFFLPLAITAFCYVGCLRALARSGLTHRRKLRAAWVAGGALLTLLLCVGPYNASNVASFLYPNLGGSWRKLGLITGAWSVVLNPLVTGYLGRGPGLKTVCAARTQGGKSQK
PROTOCOL: IP1 accumulation assay in HEK293 cells stably expressing GPR40
Assay type: cell-based
TEST_CONTEXT: IP1 accumulation, HEK293 cells stably expressing GPR40, 2 hours at 37° C., % effect relative to AMG-1638; table of Biological Example 1
pEC50: −log10 of the molar value.
RECORDED_METRIC: pEC50

Example compounds with recorded pEC50:
[[record]]
compound = "COc1ccc(C(=O)N(CC(C)(C)CCn2cc(COCCOCCOCCOCC(=O)NCC[N+](C)(CCC(=O)NCCN)CCC(=O)NCCN)nn2)c2cccc(C)n2)c(N2CCC(COc3cc(C(CC(=O)O)C4CC4)ccn3)CC2)c1 (stereo not shown)"
recorded_metric = "pEC50"
val = "< 5.30"

[[record]]
compound = "COc1ccc(F)c(-c2ccc(COc3cccc([C@@H](CC(=O)O)C4CC4)c3)cc2CC(C)(C)Cn2cc(COCCOCCOCC(=O)NCC[N+](C)(CCC(=O)NCCN)CCC(=O)NCCN)nn2)c1"
recorded_metric = "pEC50"
val = "< 5.00"

[[record]]
compound = "C[C@H](C(=O)O)[C@H](c1ccc2c(c1)O[C@@H](C1CCN(Cc3cc(-n4cc(COCCOCCOCC(=O)NCC[N+](C)(CCC(=O)NCCN)CCC(=O)NCCN)nn4)ccc3OC(F)(F)F)CC1)CC2)C1CC1"
recorded_metric = "pEC50"
val = "< 5.00"


Summary: COc1ccc(F)c(-c2ccc(COc3cccc([C@@H](CC(=O)O)C4CC4)c3)cc2CC(C)(C)Cn2cc(CCCCC(=O)NCCN(CCC(=O)NCCN)CCC(=O)NCCN)nn2)c1 , GPR40 (Homo sapiens, UniProt O14842), pEC50 = < 5.00

----------
Known log10 EC50 of a selection of molecules
TARGET: GPR40 (Homo sapiens)
Construct: expressed in transfected cells; host or cells: HEK293 cells stably expressing GPR40 (Hygromycin selection)
PROTOCOL: IP1 accumulation assay in HEK293 cells stably expressing GPR40
Type: cell-based
TEST_CONTEXT: IP1 accumulation, HEK293 cells stably expressing GPR40, 2 hours at 37° C., % effect relative to AMG-1638; table of Biological Example 1
Record value = log10 of EC50 given in nM.

Example molecules with recorded log10 EC50:
[[record]]
molecule = "COc1ccc(F)c(-c2ccc(COc3cccc([C@@H](CC(=O)O)C4CC4)c3)cc2CC(C)(C)Cc2cn(CCCCCCCCCCCCCCCC(=O)NCCN(CCC(=O)NCCN)CCC(=O)NCCN)nn2)c1 [Example 89]"
val = 0.34

[[record]]
molecule = "C[C@H](C(=O)O)[C@H](c1ccc2c(c1)O[C@@H](C1CCN(Cc3cc(-c4cn(CCCCCCCCCCCCCCCCCCN(C)CCOCCOCCOCCOCCN5C[C@H](O)[C@@H](O)[C@H](O)[C@H]5CO)nn4)ccc3OC(F)(F)F)CC1)CC2)C1CC1 [Example 50]"
val = 0.93

[[record]]
molecule = "COc1ccc(C(=O)N(CC(C)(C)CCCCCCn2cc(CCCCCCCCCCCCCCCCCC(=O)NCC[N+](C)(C)C)nn2)c2cccc(C)n2)c(N2CCC(COc3cc([C@@H](CC(=O)O)C4CC4)ccn3)CC2)c1 [Example 44]"
val = 0.24


Recorded result, COc1ccc(F)c(-c2ccc(COc3cccc([C@@H](CC(=O)O)C4CC4)c3)cc2CC(C)(C)Cn2cc(CCCCCCCCCCCCCCCC(=O)NCCCN(CC(=O)O)CC(=O)O)nn2)c1 [Example 121] , log10 EC50: 0.70

Recorded result, COc1ccc(C(=O)N(CC(C)(C)CCn2cc(CCCCCCC(=O)NCCN(CCC(=O)NCCN)CCC(=O)NCCN)nn2)c2cccc(C)n2)c(N2CCC(COc3cc([C@@H](CC(=O)O)C4CC4)ccn3)CC2)c1 [Example 196] , log10 EC50: 3.99

Recorded result, COc1ccc(F)c(-c2ccc(COc3cccc([C@@H](CC(=O)O)C4CC4)c3)cc2C(C)(C)Cn2cc(CCCCCCCCCCCCCCCCCC(=O)NCC[N+](C)(CCC(=O)NCCN)CCC(=O)NCCN)nn2)c1 [Example 158] , log10 EC50: 0.95

Recorded result, COc1ccc(C(=O)N(CC(C)(C)CCn2cc(CCCCCCCCCCCCCCCC(=O)NCCCN(CC(=O)O)CC(=O)O)nn2)c2cccc(C)n2)c(N2CCC(COc3cc([C@@H](CC(=O)O)C4CC4)ccn3)CC2)c1 [Example 216] , log10 EC50: -0.32

Recorded result, COc1ccc(F)c(-c2ccc(COc3cccc([C@@H](CC(=O)O)C4CC4)c3)cc2C(C)(C)c2cn(CCCCCCCCCCCCCCCCCC(=O)NCC[N+](C)(CCC(=O)NCCN)CCC(=O)NCCN)nn2)c1 [Example 11] , log10 EC50: 1.31
